- assayed.system: Type-1 angiotensin II receptor (Oryctolagus cuniculus, UniProt P34976)
- Sequence (P34976 whole entry): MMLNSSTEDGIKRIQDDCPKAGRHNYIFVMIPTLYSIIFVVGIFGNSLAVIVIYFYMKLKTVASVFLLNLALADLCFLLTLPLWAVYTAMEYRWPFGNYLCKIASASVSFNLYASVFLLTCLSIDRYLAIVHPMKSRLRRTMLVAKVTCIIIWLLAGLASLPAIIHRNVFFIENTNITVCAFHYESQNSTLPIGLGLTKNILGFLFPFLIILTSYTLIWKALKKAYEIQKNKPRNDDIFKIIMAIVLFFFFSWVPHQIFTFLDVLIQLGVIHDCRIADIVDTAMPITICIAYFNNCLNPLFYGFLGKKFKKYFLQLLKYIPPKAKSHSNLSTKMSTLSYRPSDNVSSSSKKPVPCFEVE
measured.endpoint: IC50 (nM)
One number for each entry, in nM.

See these solved cases before continuing.
| structure.string | IC50, nM |
| --- | --- |
| CCCCc1nnc(SCc2cccc(OC)c2)n1Cc1ccc(-c2ccccc2-c2nn[nH]n2)cc1 | 94 |
| CCCCc1nnc(C(=O)N(C)c2ccccc2)n1Cc1ccc(-c2ccccc2-c2nnn[nH]2)cc1 | 350 |
| CCCCc1nnc(SCc2ccccc2C(=O)OC)n1Cc1ccc(NC(=O)c2ccccc2C(=O)O)cc1 | 14 |
| CCCc1nnc(SCc2ccc(Cl)cc2)n1Cc1ccc(-c2ccccc2-c2nn[nH]n2)cc1 | 98 |

I would be grateful if you could provide IC50 for each of the following entries.
1. CCCCc1nnc(SCCO)n1Cc1ccc(NC(=O)c2ccccc2C(=O)O)cc1
2. CCCCc1nnc(OCCc2ccccc2)n1Cc1ccc(-c2ccccc2-c2nnn[nH]2)cc1

OUT:
480
63
